Exercise: state measured inhibition at 50 µM for each of the compounds provided.
Test system: SARS-CoV-2
measurement-notes: Antiviral activity against SARS-CoV-2 Omicron BA.2 pseudovirus infected in human 293T/ACE2 cells assessed as virus inhibition at 50 microM incubated for 24 hrs by firefly luciferase assay relative to control
Type: functional
condition-details: Severe acute respiratory syndrome coronavirus 2, Omicron BA.2, 293T/ACE2
# output: bare number, implied unit %

If you can, please state the reported inhibition at 50 µM value of CC1=CC(=O)C=C[C@]2(C)[C@H]3[C@@H](O)[C@@H]4O[C@]4(C)[C@@]4(Cc5c(c(C)c(C)oc5=O)O4)[C@]3(C)CC[C@@H]12 .
69

Repeat for the following compound: CC1=CC(=O)C=C[C@]2(C)[C@H]3C(=O)C=C(C)[C@]4(Oc5c(C)c(C)oc(=O)c5[C@@H]4O)[C@]3(C)CC[C@@H]12
46

Another: CC1=CC(=O)C=C[C@]2(C)[C@H]3[C@@H](O)C=C(C)[C@@]4(Cc5c(c(C)c(C)oc5=O)O4)[C@]3(C)CC[C@@H]12 [BREVIONE F]
5

---

Tested on: SARS-CoV-2
measurement-notes: Antiviral activity against SARS-CoV-2 Omicron BA.2 pseudovirus infected in human 293T/ACE2 cells assessed as virus inhibition at 50 microM incubated for 24 hrs by firefly luciferase assay relative to control
Format: functional
condition-details: Severe acute respiratory syndrome coronavirus 2, Omicron BA.2, 293T/ACE2
quantity-measured: inhibition at 50 µM (%)
# unit: % | format: bare number

Reported inhibition at 50 µM, molecule CC1=CC(=O)C[C@@H]2O[C@@H]3C=C(C)[C@@]45Oc6c(C)c(C)oc(=O)c6[C@@H]4O[C@@H](O)[C@]54CC[C@@H]1[C@@]2(C)[C@@H]34 : ____
0

Next up: CO[C@H]1c2c(c(C)c(C)oc2=O)O[C@]12C(C)=C[C@H]1O[C@H]3CC(=O)C=C(C)[C@@H]4CC[C@]2(C)[C@H]1[C@@]34C
0

Again, but for CC1=CC[C@@H]2[C@@]3(C)C=CC(=O)[C@@](C)(CO)[C@@H]3CC[C@@]2(C)[C@]12Cc1c(c(C)c(C)oc1=O)O2
14

---

System: RAW264.7
measurement-notes: Antiinflammatory activity in LPS-induced mouse RAW264.7 cells assessed as inhibition of nitric oxide secretion at 20 microM incubated for 24 hrs by Griess reagent based assay relative to control
Type: functional
quantity-measured: inhibition at 20 µM

Tell me the measured inhibition at 20 µM of CC1=C[C@H](O)[C@@H]2[C@@]3(C)[C@H](O)C(=O)[C@H](O)C(C)(C)[C@@H]3CC[C@@]2(C)[C@]12Cc1c(c(C)c(C)oc1=O)O2 , please.
35%

And what about the compound CC(=O)/C(C)=C1\C[C@H]2O[C@@H](O)[C@]34CC[C@H]5C(C)=CC(=O)C[C@@H]6O[C@H](C=C(C)[C@@]23O1)[C@@H]4[C@@]65C ?
38%

Continue with CC1=CC(=O)C[C@@H]2O[C@@H]3C=C(C)[C@]4(Oc5c(C)c(C)oc(=O)c5[C@@H]4O)[C@]4(C)CC[C@@H]1[C@@]2(C)[C@@H]34
52%

Next record, please: CC1=CC(=O)C[C@@H]2O[C@@H]3C=C(C)[C@@]4(Cc5c(c(C)c(C)oc5=O)O4)[C@]4(C)CC[C@@H]1[C@@]2(C)[C@@H]34
25%

Repeat for the following compound: CC(=O)/C(C)=C1/C[C@H]2O[C@@H](O)[C@]34CC[C@H]5C(C)=CC(=O)C[C@@H]6O[C@H](C=C(C)[C@@]23O1)[C@@H]4[C@@]65C
31%

Repeat with CC1=CC(=O)C=C[C@]2(C)[C@H]3C(=O)C=C(C)[C@]4(Oc5c(C)c(C)oc(=O)c5[C@@H]4O)[C@]3(C)CC[C@@H]12
47%
